# maps each entry to its Aminopeptidase activity
Test system: B. mel. ss. intermedius
Format: biochemical
Details: strain ATCC 33563; β-naphthylamine liberated after 60 minutes, 37° C.
Peptide text beside a SMILES is read from it. * marks the point of attachment. βNA = c1ccc2cc(N*)ccc2c1
Test Readout: Aminopeptidase activity (nmol)

Molecule: C[C@H](N)C(=O)N[C@@H](C)C(=O)N[C@@H](Cc1ccccc1)C(=O)Nc1ccc2ccccc2c1 [Ala-Ala-Phe] (H-Ala-Ala-Phe-βNA)
Tested Target: B. mel. ss. intermedius
Test Readout: Aminopeptidase activity
Readout Number: 0

Molecule: CC(C)C[C@H](N)C(=O)NCC(=O)O [Leu-Gly, Leucyl-glycine] (H-Leu-Gly-OH)
Tested Target: B. mel. ss. intermedius
Test Readout: Aminopeptidase activity
Readout Number: 2

Molecule: NC(=O)[C@@H](N)CCC(=O)O
Tested Target: B. mel. ss. intermedius
Test Readout: Aminopeptidase activity
Readout Number: 0

Molecule: Cl.N=C(N)NCCC[C@H](NC(=O)CNC(=O)CNC(=O)OCc1ccccc1)C(=O)Nc1ccc2ccccc2c1
Tested Target: B. mel. ss. intermedius
Test Readout: Aminopeptidase activity
Readout Number: 1

Molecule: CC(C)C[C@H](NC(=O)[C@@H]1CCCN1C(=O)CN)C(=O)Nc1ccc2ccccc2c1 [Gly-Pro-Leu] (H-Gly-Pro-Leu-βNA)
Tested Target: B. mel. ss. intermedius
Test Readout: Aminopeptidase activity
Readout Number: 2

Molecule: CSCCC(N)C(=O)Nc1ccc2ccccc2c1 (racemic)
Tested Target: B. mel. ss. intermedius
Test Readout: Aminopeptidase activity
Readout Number: 0

* * *

# maps each entry to its Aminopeptidase activity
System: Fusobacterium nucleatum
Type: biochemical
Details: strain ATCC 25586; β-naphthylamine liberated after 60 minutes, 37° C.
Peptide text beside a SMILES is read from it. * marks the point of attachment. βNA = c1ccc2cc(N*)ccc2c1

Molecule: Cl.N=C(N)NCCC[C@H](NC(=O)CNC(=O)CNC(=O)OCc1ccccc1)C(=O)Nc1ccc2ccccc2c1
Aminopeptidase activity: 0 nmol

Molecule: CSCCC(N)C(=O)Nc1ccc2ccccc2c1 (racemic)
Aminopeptidase activity: 0 nmol

Molecule: CC(C)C[C@H](NC(=O)[C@@H]1CCCN1C(=O)CN)C(=O)Nc1ccc2ccccc2c1 [Gly-Pro-Leu] (H-Gly-Pro-Leu-βNA)
Aminopeptidase activity: 2 nmol

Molecule: CC(C)C[C@H](N)C(=O)NCC(=O)O [Leu-Gly, Leucyl-glycine] (H-Leu-Gly-OH)
Aminopeptidase activity: 0 nmol

Molecule: C[C@H](N)C(=O)N[C@@H](C)C(=O)N[C@@H](Cc1ccccc1)C(=O)Nc1ccc2ccccc2c1 [Ala-Ala-Phe] (H-Ala-Ala-Phe-βNA)
Aminopeptidase activity: 3 nmol

Molecule: NC(=O)[C@@H](N)CCC(=O)O
Aminopeptidase activity: 0 nmol

* * *

# maps each entry to its Aminopeptidase activity
Tested on: Capnocytophaga sp.
Type: biochemical
Settings: strain JD3-5; β-naphthylamine liberated after 60 minutes, 37° C.
Peptide text beside a SMILES is read from it. * marks the point of attachment. βNA = c1ccc2cc(N*)ccc2c1
Test Readout: Aminopeptidase activity (nmol)

Molecule: CC(C)C[C@H](N)C(=O)NCC(=O)O [Leu-Gly, Leucyl-glycine] (H-Leu-Gly-OH)
Test Readout: Aminopeptidase activity
Units Of Measure: nmol
Readout Number: 0
//
Molecule: C[C@H](N)C(=O)N[C@@H](C)C(=O)N[C@@H](Cc1ccccc1)C(=O)Nc1ccc2ccccc2c1 [Ala-Ala-Phe] (H-Ala-Ala-Phe-βNA)
Test Readout: Aminopeptidase activity
Units Of Measure: nmol
Readout Number: 0
//
Molecule: CC(C)C[C@H](NC(=O)[C@@H]1CCCN1C(=O)CN)C(=O)Nc1ccc2ccccc2c1 [Gly-Pro-Leu] (H-Gly-Pro-Leu-βNA)
Test Readout: Aminopeptidase activity
Units Of Measure: nmol
Readout Number: 0
//
Molecule: CSCCC(N)C(=O)Nc1ccc2ccccc2c1 (racemic)
Test Readout: Aminopeptidase activity
Units Of Measure: nmol
Readout Number: 28
//
Molecule: NC(=O)[C@@H](N)CCC(=O)O
Test Readout: Aminopeptidase activity
Units Of Measure: nmol
Readout Number: 0
//
Molecule: Cl.N=C(N)NCCC[C@H](NC(=O)CNC(=O)CNC(=O)OCc1ccccc1)C(=O)Nc1ccc2ccccc2c1
Test Readout: Aminopeptidase activity
Units Of Measure: nmol
Readout Number: 0

* * *

System: Bacteroides gingivalis
Type: biochemical
Conditions: strain 381; β-naphthylamine liberated after 60 minutes, 37° C.
Peptide text beside a SMILES is read from it. * marks the point of attachment. βNA = c1ccc2cc(N*)ccc2c1

Compound: CSCCC(N)C(=O)Nc1ccc2ccccc2c1 (racemic)
Aminopeptidase activity: 0 nmol
//
Compound: NC(=O)[C@@H](N)CCC(=O)O [α-Glu, α -glutamine]
Aminopeptidase activity: 0 nmol
//
Compound: CC(C)C[C@H](NC(=O)[C@@H]1CCCN1C(=O)CN)C(=O)Nc1ccc2ccccc2c1 [Gly-Pro-Leu] (H-Gly-Pro-Leu-βNA)
Aminopeptidase activity: 0 nmol
//
Compound: C[C@H](N)C(=O)N[C@@H](C)C(=O)N[C@@H](Cc1ccccc1)C(=O)Nc1ccc2ccccc2c1 [Ala-Ala-Phe] (H-Ala-Ala-Phe-βNA)
Aminopeptidase activity: 0 nmol
//
Compound: Cl.N=C(N)NCCC[C@H](NC(=O)CNC(=O)CNC(=O)OCc1ccccc1)C(=O)Nc1ccc2ccccc2c1 [N-CBz-Gly-Gly-Arg]
Aminopeptidase activity: 91 nmol
//
Compound: CC(C)C[C@H](N)C(=O)NCC(=O)O [Leu-Gly, Leucyl-glycine] (H-Leu-Gly-OH)
Aminopeptidase activity: 76 nmol

* * *

# maps each entry to its Aminopeptidase activity
System: S. sanguis
Type: biochemical
Settings: strain ATCC 10556; β-naphthylamine liberated after 60 minutes, 37° C.
Peptide text beside a SMILES is read from it. * marks the point of attachment. βNA = c1ccc2cc(N*)ccc2c1
Test Readout: Aminopeptidase activity (nmol)

Compound: NC(=O)[C@@H](N)CCC(=O)O [α-Glu, α -glutamine]
Readout Number: 0

Compound: Cl.N=C(N)NCCC[C@H](NC(=O)CNC(=O)CNC(=O)OCc1ccccc1)C(=O)Nc1ccc2ccccc2c1 [N-CBz-Gly-Gly-Arg]
Readout Number: 0

Compound: CC(C)C[C@H](NC(=O)[C@@H]1CCCN1C(=O)CN)C(=O)Nc1ccc2ccccc2c1 [Gly-Pro-Leu] (H-Gly-Pro-Leu-βNA)
Readout Number: 11

Compound: C[C@H](N)C(=O)N[C@@H](C)C(=O)N[C@@H](Cc1ccccc1)C(=O)Nc1ccc2ccccc2c1 [Ala-Ala-Phe] (H-Ala-Ala-Phe-βNA)
Readout Number: 2

Compound: CSCCC(N)C(=O)Nc1ccc2ccccc2c1 (racemic)
Readout Number: 23

Compound: CC(C)C[C@H](N)C(=O)NCC(=O)O [Leu-Gly, Leucyl-glycine] (H-Leu-Gly-OH)
Readout Number: 0

* * *

System: Bacteroides gingivalis
Type: biochemical
Conditions: strain ATCC 33277; β-naphthylamine liberated after 60 minutes, 37° C.
Peptide text beside a SMILES is read from it. * marks the point of attachment. βNA = c1ccc2cc(N*)ccc2c1
# maps each entry to its Aminopeptidase activity

Molecule: CC(C)C[C@H](NC(=O)[C@@H]1CCCN1C(=O)CN)C(=O)Nc1ccc2ccccc2c1 [Gly-Pro-Leu] (H-Gly-Pro-Leu-βNA)
Tested Target: Bacteroides gingivalis
Aminopeptidase activity / nmol: 0
--
Molecule: C[C@H](N)C(=O)N[C@@H](C)C(=O)N[C@@H](Cc1ccccc1)C(=O)Nc1ccc2ccccc2c1 [Ala-Ala-Phe] (H-Ala-Ala-Phe-βNA)
Tested Target: Bacteroides gingivalis
Aminopeptidase activity / nmol: 1
--
Molecule: CC(C)C[C@H](N)C(=O)NCC(=O)O [Leu-Gly, Leucyl-glycine] (H-Leu-Gly-OH)
Tested Target: Bacteroides gingivalis
Aminopeptidase activity / nmol: 48
--
Molecule: Cl.N=C(N)NCCC[C@H](NC(=O)CNC(=O)CNC(=O)OCc1ccccc1)C(=O)Nc1ccc2ccccc2c1
Tested Target: Bacteroides gingivalis
Aminopeptidase activity / nmol: 84
--
Molecule: CSCCC(N)C(=O)Nc1ccc2ccccc2c1 (racemic)
Tested Target: Bacteroides gingivalis
Aminopeptidase activity / nmol: 0
--
Molecule: NC(=O)[C@@H](N)CCC(=O)O
Tested Target: Bacteroides gingivalis
Aminopeptidase activity / nmol: 1

* * *

# maps each entry to its Aminopeptidase activity
Tested on: Fusobacterium nucleatum
Type: biochemical
Settings: strain 2; β-naphthylamine liberated after 60 minutes, 37° C.
Peptide text beside a SMILES is read from it. * marks the point of attachment. βNA = c1ccc2cc(N*)ccc2c1
Test Readout: Aminopeptidase activity (nmol)

Molecule: CSCCC(N)C(=O)Nc1ccc2ccccc2c1 (racemic)
Units Of Measure: nmol
Readout Number: 1
//
Molecule: CC(C)C[C@H](NC(=O)[C@@H]1CCCN1C(=O)CN)C(=O)Nc1ccc2ccccc2c1 [Gly-Pro-Leu] (H-Gly-Pro-Leu-βNA)
Units Of Measure: nmol
Readout Number: 0
//
Molecule: CC(C)C[C@H](N)C(=O)NCC(=O)O [Leu-Gly, Leucyl-glycine] (H-Leu-Gly-OH)
Units Of Measure: nmol
Readout Number: 2
//
Molecule: NC(=O)[C@@H](N)CCC(=O)O
Units Of Measure: nmol
Readout Number: 0
//
Molecule: Cl.N=C(N)NCCC[C@H](NC(=O)CNC(=O)CNC(=O)OCc1ccccc1)C(=O)Nc1ccc2ccccc2c1
Units Of Measure: nmol
Readout Number: 3
//
Molecule: C[C@H](N)C(=O)N[C@@H](C)C(=O)N[C@@H](Cc1ccccc1)C(=O)Nc1ccc2ccccc2c1 [Ala-Ala-Phe] (H-Ala-Ala-Phe-βNA)
Units Of Measure: nmol
Readout Number: 2

The values you see were collected from patent US4994376A.
